# Lookup of reported abundance fitness keyed by entry
B1: KAT8 regulatory NSL complex subunit 2, residues 28 to 91; numbered along this chain, Q9H9L4 (parent)
chain: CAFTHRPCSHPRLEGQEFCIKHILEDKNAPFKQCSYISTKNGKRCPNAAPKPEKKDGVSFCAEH

Variants of: B1
Assay Name: abundance fitness (aPCA) (normalised: wild type 0, dead -1); higher = more abundant; growth selection in yeast, the domain comes from the species named
Conditions: Homo sapiens
The answer should be written as a number, with no unit following it.

Please review the entries below; each comes with its answer.
C61T = -0.356
I20E = -0.129
N47R = -0.062
C19N = -1.27
Y36E = -0.183

Ask: Given K51Q , state its recorded abundance fitness.
Result: -0.217

Ask: Given C34F , state its recorded abundance fitness.
Result: -0.664

Ask: Given I37A , state its recorded abundance fitness.
Result: -0.177

Ask: Given Y36D , state its recorded abundance fitness.
Result: -0.162

Ask: Given K21E , state its recorded abundance fitness.
Result: -0.085

Ask: Given A48F , state its recorded abundance fitness.
Result: -0.204
